# TEST_SYSTEM: HCV NS5B genotype 1b (Con1) (Hepatitis C virus genotype 1b (isolate Con1) (HCV), UniProt Q9WMX2)
# Sequence (Q9WMX2 2420-2992): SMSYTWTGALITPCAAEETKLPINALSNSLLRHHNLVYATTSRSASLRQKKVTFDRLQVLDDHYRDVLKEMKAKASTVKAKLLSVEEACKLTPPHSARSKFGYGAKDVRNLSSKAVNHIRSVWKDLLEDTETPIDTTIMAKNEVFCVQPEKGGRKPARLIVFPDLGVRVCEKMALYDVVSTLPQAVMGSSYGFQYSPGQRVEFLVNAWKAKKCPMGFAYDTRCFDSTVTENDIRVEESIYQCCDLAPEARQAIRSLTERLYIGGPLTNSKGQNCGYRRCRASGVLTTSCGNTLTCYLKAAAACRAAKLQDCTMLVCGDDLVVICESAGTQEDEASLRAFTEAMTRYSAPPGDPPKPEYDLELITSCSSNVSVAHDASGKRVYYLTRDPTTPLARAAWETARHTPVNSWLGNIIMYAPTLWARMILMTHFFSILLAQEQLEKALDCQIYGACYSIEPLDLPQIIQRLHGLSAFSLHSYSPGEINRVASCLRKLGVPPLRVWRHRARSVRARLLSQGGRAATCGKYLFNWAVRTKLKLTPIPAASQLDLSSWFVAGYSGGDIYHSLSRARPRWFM
# EXPERIMENT: HCV NS5B RdRp enzyme assay (1b enzyme)
# CONDITION_DESCRIPTION: genotype 1b NS5B enzyme
MEASURE_NAME: IC50 (nM)
The reply should contain only the number, in nM.

| COMPOUND | UNITS_OF_MEASURE | IC50 |
| --- | --- | --- |
| CNC(=O)c1c(-c2ccc(F)cc2)oc2cc(OCC(F)F)c(-c3cccc(C(=O)NC4(c5ncccn5)CC4)c3)cc12 [Example 20] | nM | 4.54 |

Input: Report IC50 for CNC(=O)c1c(-c2ccc(F)cc2)oc2cc(OC(C)C)c(-c3ccc(OC)c(C(=O)NC(C)(C)c4ncon4)c3)cc12 [Example 23]
Output: 7.14

Input: Answer with the recorded IC50 of CNC(=O)c1c(-c2ccc(F)cc2)oc2cc(OCC(F)(F)F)c(-c3ccc(OC)c(C(=O)NC(C)(C)c4ncon4)c3)cc12 [Example 18] only.
Output: 2.83

Input: In one line, give reported IC50 of the entry CCOc1cc2oc(-c3ccc(F)cc3)c(C(=O)NC)c2cc1-c1cccc(C(=O)NC(C)(C)c2nc3ccncc3[nH]2)c1 [Example 32] .
Output: 6.01

###

Known pEC50 of a selection of compounds
# System: genotype 1b (Con-1) HCV replicon in Huh-7 cells
# EXPERIMENT: HCV replicon luciferase assay (1b replicon)
# Type: cell-based
# CONDITION_DESCRIPTION: Hepatitis C virus, Huh-7, 72 h
Reminder that pEC50 is minus the log10 of a molar concentration.

| COMPOUND | pEC50 |
| --- | --- |
| [2H]C([2H])([2H])Oc1ncc(-c2cc3c(C(=O)NC)c(-c4ccc(F)cc4)oc3cc2OCC)cc1C(=O)NC(C)(C)C#N [Example 17] | 8.55 |

Input: Give reported pEC50 for CNC(=O)c1c(-c2ccc(F)cc2)oc2cc(OCC(F)F)c(-c3cccc(C(=O)NC4(c5ncccn5)CC4)c3)cc12 [Example 20] (genotype 1b (Con-1) HCV replicon in Huh-7 cells)
Output: 8.17
